# IC50 measurements, system: Beta-secretase 1 (Homo sapiens, UniProt P56817)
# Sequence (P56817 whole entry): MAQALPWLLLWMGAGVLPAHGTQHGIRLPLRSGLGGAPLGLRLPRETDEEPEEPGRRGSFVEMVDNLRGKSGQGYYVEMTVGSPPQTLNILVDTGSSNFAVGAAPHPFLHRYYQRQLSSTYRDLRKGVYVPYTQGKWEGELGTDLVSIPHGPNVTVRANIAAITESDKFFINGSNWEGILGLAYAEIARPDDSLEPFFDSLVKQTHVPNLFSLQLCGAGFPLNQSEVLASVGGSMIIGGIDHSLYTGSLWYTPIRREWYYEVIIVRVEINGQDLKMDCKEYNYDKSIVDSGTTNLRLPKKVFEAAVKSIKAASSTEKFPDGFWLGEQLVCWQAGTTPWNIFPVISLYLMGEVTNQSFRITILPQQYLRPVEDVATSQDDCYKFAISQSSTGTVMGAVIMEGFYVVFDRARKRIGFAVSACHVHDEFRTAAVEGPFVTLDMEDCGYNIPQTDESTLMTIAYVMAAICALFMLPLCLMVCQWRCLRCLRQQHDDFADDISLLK
# number only, unit nM dropped from output

Some compounds with recorded IC50:
Simply: "C[C@@H](NC(=O)c1cc(C(=O)N[C@@H](Cc2ccccc2)[C@H](O)CNC(C)(C)C)cc(N(C)S(C)(=O)=O)c1)c1ccc(F)cc1" , Beta-secretase 1 (Homo sapiens, UniProt P56817), IC50 = 15

Simply: "C[C@@H](NC(=O)c1cc(C(=O)N[C@@H](Cc2ccccc2)[C@H](O)CN)cc(N(C)S(C)(=O)=O)c1)c1ccc(F)cc1" , Beta-secretase 1 (Homo sapiens, UniProt P56817), IC50 = 23

Simply: "CC(C)S(=O)(=O)N(C)c1cc(C(=O)N[C@@H](Cc2ccccc2)[C@H](O)CNC2CC2)cc(C(=O)N[C@H](C)c2ccccc2)c1" , Beta-secretase 1 (Homo sapiens, UniProt P56817), IC50 = 41

***
Simply: "C[C@@H](NC(=O)c1cc(C(=O)N[C@@H](Cc2ccccc2)[C@H](O)CNC2CC2)cc(N(C)S(C)(=O)=O)c1)c1ccc(F)cc1" , Beta-secretase 1 (Homo sapiens, UniProt P56817), IC50 = 10

Simply: C[C@@H](NC(=O)c1cc(NS(C)(=O)=O)cc(C(=O)N[C@@H](Cc2ccccc2)C(O)CNC2CC2)c1)c1ccc(F)cc1 (some centres not stated) , Beta-secretase 1 (Homo sapiens, UniProt P56817), IC50 = 63

Simply: "CCNC[C@@H](O)[C@H](Cc1ccccc1)NC(=O)c1cc(C(=O)N[C@H](C)c2ccc(F)cc2)cc(N(C)S(C)(=O)=O)c1" , Beta-secretase 1 (Homo sapiens, UniProt P56817), IC50 = 15

Simply: "C[C@@H](NC(=O)c1cc(C(=O)N[C@@H](Cc2ccccc2)[C@H](O)CNC2CC2)cc(N(C)S(=O)(=O)N(C)C)c1)c1ccccc1" , Beta-secretase 1 (Homo sapiens, UniProt P56817), IC50 = 14

----------
Target: Beta-secretase 2 (Homo sapiens, UniProt Q9Y5Z0)
Sequence (Q9Y5Z0 whole entry): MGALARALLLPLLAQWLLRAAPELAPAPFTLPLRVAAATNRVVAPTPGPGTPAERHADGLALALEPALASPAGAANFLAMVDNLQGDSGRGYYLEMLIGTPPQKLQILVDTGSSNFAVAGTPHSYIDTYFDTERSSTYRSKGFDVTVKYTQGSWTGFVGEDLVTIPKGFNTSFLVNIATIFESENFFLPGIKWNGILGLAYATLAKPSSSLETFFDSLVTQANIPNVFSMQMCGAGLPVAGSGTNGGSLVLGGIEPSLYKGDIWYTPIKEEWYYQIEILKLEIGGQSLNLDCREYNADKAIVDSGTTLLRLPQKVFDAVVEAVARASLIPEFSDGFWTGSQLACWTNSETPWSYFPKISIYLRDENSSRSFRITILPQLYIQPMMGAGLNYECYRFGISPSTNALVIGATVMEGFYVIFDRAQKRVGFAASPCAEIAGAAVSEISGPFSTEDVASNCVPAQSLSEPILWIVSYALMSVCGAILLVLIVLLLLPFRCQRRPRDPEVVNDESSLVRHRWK
Parameter Measured: pIC50
// returns pIC50 (minus log10 of molar concentration), number only

Some molecules with recorded pIC50:
The molecule listed as "CC(C)S(=O)(=O)N(C)c1cc(C(=O)N[C@@H](Cc2ccccc2)[C@H](O)CNC2CC2)cc(C(=O)N[C@H](C)c2ccccc2)c1" shows pIC50 equal to 6.44

The molecule listed as "C[C@@H](NC(=O)c1cc(C(=O)N[C@@H](Cc2ccccc2)[C@H](O)CNC2CC2)cc(N(C)S(=O)(=O)N(C)C)c1)c1ccccc1" shows pIC50 equal to 6.96

The molecule listed as "CCNC[C@@H](O)[C@H](Cc1ccccc1)NC(=O)c1cc(C(=O)N[C@H](C)c2ccc(F)cc2)cc(N(C)S(C)(=O)=O)c1" shows pIC50 equal to 6.59

***
The molecule listed as "C[C@@H](NC(=O)c1cc(C(=O)N[C@@H](Cc2ccccc2)[C@H](O)CNC2CC2)cc(N(C)S(C)(=O)=O)c1)c1ccc(F)cc1" shows pIC50 equal to 7.16
